Target System: vanilloid receptor 1 (VR1/TRPV1 receptor) (Homo sapiens)
Construct: expressed in transfected cells; host or cells: CHO K1 cells (ECACC), stably transfected
Run Description: Functional testing on vanilloid receptor 1: FLIPR Ca2+ influx assay against capsaicin (Cap) in transfected CHO K1 cells (pharmacological method II); further: 100 nM capsaicin
Format: cell-based
Setup Conditions: read-out: (f) Ki (human being) [nM] Cap
Source text: […]
Measurement Name: Ki (nM)

1. O=C(NCc1cc(C(F)(F)F)nn1-c1cccc(Cl)c1)Nc1ccc(OCC(O)CO)c(F)c1 (stereo not drawn)	65
2. CC(C)(C)c1cc(CNC(=O)Cc2ccc(CO)c(F)c2)n(-c2cccc(Cl)c2)n1	1

(P) O=C(NCc1cc(C(F)(F)F)nn1-c1cccc(Cl)c1)Nc1ccc(C(O)CO)c(F)c1 (stereo not drawn)
(Q) O=C(NCc1cc(C(F)(F)F)nn1-c1cccc(F)c1)Nc1ccc(CO)c(F)c1
Problem: Could you check which of P and Q has a smaller value for Ki? Answer = label.
Result: Q
(Q: 30 nM, P: 62 nM)

(A) CC(C)(C)c1cc(CNC(=O)Nc2ccc(COCCO)c(F)c2)n(-c2cccc(Cl)c2)n1
(B) CCOc1ccc(C)cc1-n1nc(C(F)(F)F)cc1CNC(=O)Nc1ccc(CO)c(F)c1
(C) O=C(NCc1cc(C(F)(F)F)nn1-c1cccc(Cl)c1)Nc1ccc(CO)c(Cl)c1
(D) COc1cc(C)cc(-n2nc(C(F)(F)F)cc2CNC(=O)Nc2ccc(CO)c(F)c2)c1
Problem: List items by Ki in falling order. Use the labels to give the requested order.
Result: B, A, D, C
(B: 86 nM, A: 43 nM, D: 19 nM, C: 11 nM)

(a) CC(C(=O)NCc1cc(C(F)(F)F)nn1-c1cccc(F)c1)c1ccc(C2(O)CC2)c(F)c1 (stereo not drawn)
(b) Cc1cccc(-n2nc(C(C)(C)C)cc2CNC(=O)Nc2ccc(CO)c(F)c2)c1
(c) COc1c(C)cccc1-n1nc(C(F)(F)F)cc1CNC(=O)Nc1ccc(CO)c(F)c1
Problem: I would appreciate it if you could sort these 3 compounds by Ki, starting from the smallest number. Use the labels to give the requested order.
Result: b, a, c
(b: 2 nM, a: 15 nM, c: 30 nM)

(P) O=C(NCc1cc(C(F)(F)F)nn1-c1cccc(Cl)c1)Nc1ccc(C2(O)COC2)cc1
(Q) CC(C(=O)NCc1cc(C(C)(C)C)nn1-c1cccc(OC(F)(F)F)c1)c1ccc(COCCO)c(F)c1 (stereo not drawn)
Problem: Could you check which of P and Q has a smaller value for Ki? Answer = label.
Result: Q

====

Target System: vanilloid receptor 1 (VR1/TRPV1 receptor) (Homo sapiens, UniProt Q8NER1)
Construct: expressed in transfected cells; host or cells: CHO K1 cells (ECACC), stably transfected
Sequence (Q8NER1 whole entry): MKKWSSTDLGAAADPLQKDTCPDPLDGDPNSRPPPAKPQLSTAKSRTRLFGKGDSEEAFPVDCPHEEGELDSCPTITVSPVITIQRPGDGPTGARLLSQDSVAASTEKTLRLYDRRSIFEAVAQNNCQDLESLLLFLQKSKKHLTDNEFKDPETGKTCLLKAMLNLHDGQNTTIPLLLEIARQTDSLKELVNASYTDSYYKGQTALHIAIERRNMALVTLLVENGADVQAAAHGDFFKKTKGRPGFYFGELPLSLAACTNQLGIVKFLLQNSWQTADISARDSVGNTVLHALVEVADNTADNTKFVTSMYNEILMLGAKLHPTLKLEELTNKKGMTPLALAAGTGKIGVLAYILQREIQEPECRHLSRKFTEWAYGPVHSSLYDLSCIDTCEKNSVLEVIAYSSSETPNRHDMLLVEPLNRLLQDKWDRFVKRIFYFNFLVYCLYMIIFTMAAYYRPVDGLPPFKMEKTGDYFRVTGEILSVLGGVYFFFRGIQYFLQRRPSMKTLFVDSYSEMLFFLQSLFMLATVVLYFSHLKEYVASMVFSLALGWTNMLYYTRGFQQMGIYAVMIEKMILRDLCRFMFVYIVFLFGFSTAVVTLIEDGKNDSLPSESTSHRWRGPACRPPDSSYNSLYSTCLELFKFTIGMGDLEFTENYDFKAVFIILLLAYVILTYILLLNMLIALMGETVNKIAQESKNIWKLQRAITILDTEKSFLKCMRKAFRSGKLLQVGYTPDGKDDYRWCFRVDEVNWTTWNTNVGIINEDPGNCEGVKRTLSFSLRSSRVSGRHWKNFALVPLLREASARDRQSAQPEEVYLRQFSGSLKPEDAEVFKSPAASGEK
Run Description: Functional testing on vanilloid receptor 1: FLIPR Ca2+ influx assay against capsaicin (Cap) in transfected CHO K1 cells (pharmacological method II); further: 100 nM capsaicin
Assay type: cell-based
Setup Conditions: read-out: (f) Ki (human being) [nM] Cap
Measurement Name: Ki (nM)

(1) CC(C)(C)c1cc(CNC(=O)Nc2ccc(OCCO)c(F)c2)n(-c2cccc(Cl)c2)n1 [A19]
(2) O=C(NCc1cc(C(F)(F)F)nn1-c1cccc(Cl)c1)Nc1ccc(C2(O)CC2)c(F)c1 [A106]
Problem: Larger number for Ki: 1 , or 2 ? Answer = label.
Result: 2
(2: 31 nM, 1: 13 nM)
